B1: library; a variant is named by its letters at N, in order (parent)
chain: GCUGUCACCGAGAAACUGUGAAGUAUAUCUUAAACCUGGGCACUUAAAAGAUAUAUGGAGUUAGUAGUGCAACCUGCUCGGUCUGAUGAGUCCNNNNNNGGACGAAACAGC

Variants of: B1
Assay: normalized RNA/DNA level with ligand (relative to sTRSVctl = 100) (log10 (% of sTRSVctl)); HEK293T; ligand: cyclic di-GMP (c-di-GMP-II aptamer); ligand concentration (+) RNA-Seq: 1 mM; higher = less ribozyme self-cleavage, higher mRNA level
Settings: reporter: mCherry (pCS4076), ligand present: yes
Below, each entry is listed with its recorded normalized RNA/DNA level with ligand (log10).
OUTCOME MEASURE: normalized RNA/DNA level with ligand (log10)

# BIOSEQUENCE, MEASURED RESULT
measured = [
    ("GCUGUCACCGAGAAACUGUGAAGUAUAUCUUAAACCUGGGCACUUAAAAGAUAUAUGGAGUUAGUAGUGCAACCUGCUCGGUCUGAUGAGUCCUUUUGUGGACGAAACAGC [UUUUGU]", 1.87),
    ("GCUGUCACCGAGAAACUGUGAAGUAUAUCUUAAACCUGGGCACUUAAAAGAUAUAUGGAGUUAGUAGUGCAACCUGCUCGGUCUGAUGAGUCCGCCCGUGGACGAAACAGC [GCCCGU]", 1.84),
    ("GCUGUCACCGAGAAACUGUGAAGUAUAUCUUAAACCUGGGCACUUAAAAGAUAUAUGGAGUUAGUAGUGCAACCUGCUCGGUCUGAUGAGUCCUAUAUCGGACGAAACAGC [UAUAUC]", 1.85),
    ("GCUGUCACCGAGAAACUGUGAAGUAUAUCUUAAACCUGGGCACUUAAAAGAUAUAUGGAGUUAGUAGUGCAACCUGCUCGGUCUGAUGAGUCCCAAAGGGGACGAAACAGC [CAAAGG]", 1.75),
    ("GCUGUCACCGAGAAACUGUGAAGUAUAUCUUAAACCUGGGCACUUAAAAGAUAUAUGGAGUUAGUAGUGCAACCUGCUCGGUCUGAUGAGUCCCGAAUAGGACGAAACAGC [CGAAUA]", 1.45),
    ("GCUGUCACCGAGAAACUGUGAAGUAUAUCUUAAACCUGGGCACUUAAAAGAUAUAUGGAGUUAGUAGUGCAACCUGCUCGGUCUGAUGAGUCCAGGAAUGGACGAAACAGC [AGGAAU]", 1.76),
    ("GCUGUCACCGAGAAACUGUGAAGUAUAUCUUAAACCUGGGCACUUAAAAGAUAUAUGGAGUUAGUAGUGCAACCUGCUCGGUCUGAUGAGUCCAAAAUCGGACGAAACAGC [AAAAUC]", 1.76),
    ("GCUGUCACCGAGAAACUGUGAAGUAUAUCUUAAACCUGGGCACUUAAAAGAUAUAUGGAGUUAGUAGUGCAACCUGCUCGGUCUGAUGAGUCCUAGUCCGGACGAAACAGC [UAGUCC]", 1.85),
    ("GCUGUCACCGAGAAACUGUGAAGUAUAUCUUAAACCUGGGCACUUAAAAGAUAUAUGGAGUUAGUAGUGCAACCUGCUCGGUCUGAUGAGUCCAAGUCGGGACGAAACAGC [AAGUCG]", 1.79),
    ("GCUGUCACCGAGAAACUGUGAAGUAUAUCUUAAACCUGGGCACUUAAAAGAUAUAUGGAGUUAGUAGUGCAACCUGCUCGGUCUGAUGAGUCCGAUAUGGGACGAAACAGC [GAUAUG]", 1.71),
    ("GCUGUCACCGAGAAACUGUGAAGUAUAUCUUAAACCUGGGCACUUAAAAGAUAUAUGGAGUUAGUAGUGCAACCUGCUCGGUCUGAUGAGUCCUCCCUUGGACGAAACAGC [UCCCUU]", 1.86),
    ("GCUGUCACCGAGAAACUGUGAAGUAUAUCUUAAACCUGGGCACUUAAAAGAUAUAUGGAGUUAGUAGUGCAACCUGCUCGGUCUGAUGAGUCCUCUUCAGGACGAAACAGC [UCUUCA]", 1.8),
    ("GCUGUCACCGAGAAACUGUGAAGUAUAUCUUAAACCUGGGCACUUAAAAGAUAUAUGGAGUUAGUAGUGCAACCUGCUCGGUCUGAUGAGUCCUUACAAGGACGAAACAGC [UUACAA]", 1.82),
    ("GCUGUCACCGAGAAACUGUGAAGUAUAUCUUAAACCUGGGCACUUAAAAGAUAUAUGGAGUUAGUAGUGCAACCUGCUCGGUCUGAUGAGUCCUCUGACGGACGAAACAGC [UCUGAC]", 1.84),
    ("GCUGUCACCGAGAAACUGUGAAGUAUAUCUUAAACCUGGGCACUUAAAAGAUAUAUGGAGUUAGUAGUGCAACCUGCUCGGUCUGAUGAGUCCAGUAGUGGACGAAACAGC [AGUAGU]", 1.78),
    ("GCUGUCACCGAGAAACUGUGAAGUAUAUCUUAAACCUGGGCACUUAAAAGAUAUAUGGAGUUAGUAGUGCAACCUGCUCGGUCUGAUGAGUCCGAUCCUGGACGAAACAGC [GAUCCU]", 1.84),
    ("GCUGUCACCGAGAAACUGUGAAGUAUAUCUUAAACCUGGGCACUUAAAAGAUAUAUGGAGUUAGUAGUGCAACCUGCUCGGUCUGAUGAGUCCAGGGUGGGACGAAACAGC [AGGGUG]", 1.7),
    ("GCUGUCACCGAGAAACUGUGAAGUAUAUCUUAAACCUGGGCACUUAAAAGAUAUAUGGAGUUAGUAGUGCAACCUGCUCGGUCUGAUGAGUCCGGCAUAGGACGAAACAGC [GGCAUA]", 1.72),
    ("GCUGUCACCGAGAAACUGUGAAGUAUAUCUUAAACCUGGGCACUUAAAAGAUAUAUGGAGUUAGUAGUGCAACCUGCUCGGUCUGAUGAGUCCCAGCAGGGACGAAACAGC [CAGCAG]", 1.85),
    ("GCUGUCACCGAGAAACUGUGAAGUAUAUCUUAAACCUGGGCACUUAAAAGAUAUAUGGAGUUAGUAGUGCAACCUGCUCGGUCUGAUGAGUCCGAGAACGGACGAAACAGC [GAGAAC]", 1.8),
    ("GCUGUCACCGAGAAACUGUGAAGUAUAUCUUAAACCUGGGCACUUAAAAGAUAUAUGGAGUUAGUAGUGCAACCUGCUCGGUCUGAUGAGUCCGUUCAAGGACGAAACAGC [GUUCAA]", 1.81),
    ("GCUGUCACCGAGAAACUGUGAAGUAUAUCUUAAACCUGGGCACUUAAAAGAUAUAUGGAGUUAGUAGUGCAACCUGCUCGGUCUGAUGAGUCCAGAGUUGGACGAAACAGC [AGAGUU]", 1.8),
]
